Tested on: S. Typhimurium ATCC14028
ASSAY INFO: Static peg assay for prevention of biofilm formation (Calgary device, crystal violet)
Assay type: cell-based, Salmonella Typhimurium
STATED CONDITIONS: 25° C., Table 16; read-out: S. Typhimurium IC50 (biofilm formation)
pIC50: −log10 of the molar value.
Tag: True if measured pIC50 is not below 5, False if it is.

Answered examples (7):
{"columns": ["COMPOUND", "CLASS LABEL"],
 "data": [
  ["CCCCCCCCCCCCCCN1c2nccc[n+]2CC1(O)c1ccc(Cl)cc1 (racemic)", "False"],
  ["CCCCCCCCCCCN1c2nccc[n+]2CC1(O)c1ccccc1 (racemic)", "False"],
  ["CCCCCCCCN1c2nccc[n+]2CC1(O)c1ccc([N+](=O)[O-])cc1 (stereo not drawn)", "True"],
  ["CCCCCCCCCCCCN1c2nccc[n+]2CC1(O)c1ccc(Cl)cc1 (racemic)", "False"],
  ["CCCCCCCCCCCCCN1c2nccc[n+]2CC1(O)c1ccc(Cl)cc1 (racemic)", "False"],
  ["CCCCCCCCCCN1c2nccc[n+]2CC1(O)c1ccc(Cl)cc1 (racemic)", "False"],
  ["CC(C)CN1c2nccc[n+]2CC1(O)c1ccc([N+](=O)[O-])cc1 (stereo not drawn)", "False"]
]}

Reported pIC50 reaches at least 5 for CC(C)CN1c2nccc[n+]2CC1(O)c1ccc(Br)cc1 (stereo not drawn) ? True

====

Test system: S. Typhimurium ATCC14028
ASSAY INFO: Static peg assay for prevention of biofilm formation (Calgary device, crystal violet)
Type: cell-based, Salmonella Typhimurium
STATED CONDITIONS: 25° C., Table 17; read-out: S. Typhimurium IC50 (biofilm formation)
PROPERTY: pIC50
Answers are plain numbers, as −log10 of the molar value.

Below, 2 compounds whose answers are already recorded.
{"columns": ["COMPOUND", "PROPERTY", "VALUE OBSERVED"],
 "data": [
  ["CCCCCCCCN1c2nccc[n+]2CC1(O)c1ccc(S(C)(=O)=O)cc1 (centres unmarked) [Compound 54]", "pIC50", 4.22],
  ["CCCCCCCCN1c2nccc[n+]2CC1(O)c1cccc(Br)c1 (centres unmarked) [Compound 56]", "pIC50", 5.15]
]}

Could you now consider this next compound?
Reported pIC50 for CCCCCCCCN1c2nccc[n+]2CC1(O)c1ccc(-c2ccc([N+](=O)[O-])cc2)cc1 (centres unmarked) [Compound 53] was 4.51

====

Test system: S. Typhimurium ATCC14028
ASSAY INFO: Static peg assay for prevention of biofilm formation (Calgary device, crystal violet)
Assay type: cell-based, Salmonella Typhimurium
STATED CONDITIONS: Salmonella enterica; 25° C., Table 11; read-out: IC50 (biofilm formation)
PROPERTY: pIC50
One number for each entry, as −log10 of the molar value.

Below, 2 molecules whose answers are already recorded.
{"columns": ["MOLECULE", "pIC50"],
 "data": [
  ["OC1(c2ccc(Br)cc2)C[n+]2cccnc2N1C1CC1.[Br-] (stereo not shown) [R1=Cyclopropyl, R3=4-Br—Ph, R4=H]", 4.57],
  ["CC1[n+]2cccnc2N(c2ccccc2)C1(O)c1ccc(Br)cc1 (stereo not shown) [R1=Ph, R3=4-Br—Ph, R4=Me]", 4.24]
]}

Could you now consider this next molecule?
Reported pIC50 for OC1(c2ccc(-c3ccccc3)cc2)C[n+]2cccnc2N1C1CCCC1.[Br-] (stereo not shown) [R1=Cyclopentyl, R3=4-biphenylyl, R4=H] was 4.83
